experiment: CD study of self-organization into structures mimicking the collagen triple helix; format: physicochemical; settings: CD at 4 °C, 20 °C and 40 °C after 24 h incubation, water, 0.1 mg/mL
PROPERTY NAME: ability to self-organize into structures mimicking the triple helix (CD)

^921LKGIPGSTGK^930 [Peptide 21] : not found
^841PGKKGTRGKK^850 [Peptide 18] : only at 4 °C
^1211PGIGIGAPGK^1220 [Peptide 27] : not found
^311GPPGQQGKKG^320 [Peptide 7] : only at 4 °C
^1451MRVGYTLVKH^1460 [Peptide 31] : not found
^81PGLLGPYGPK^90 [Peptide 3] : not found

--- query ---
-- ask Could you please provide reported ability to self-organize into structures mimicking the triple helix (CD) for ^641PGQQGLPGSK^650 [Peptide 12] ? Thanks!
-- reply only at 4 °C

----------
assay: CD study of self-organization into structures mimicking the collagen triple helix; assay type: physicochemical; settings: CD at 4 °C, 20 °C and 40 °C after 24 h incubation, water, 0.1 mg/mL
PROPERTY NAME: ability to self-organize into structures mimicking the triple helix (CD)

^821GIKGKSGLPG^830 [Peptide 17] : only at 4 °C
^23EKSYGKPCGGQDC^35 [Peptide 2.1] : not found
^1446MPGQSMRVGYTL^1457 [Peptide 2.2] : only at 4 °C
^961MSNLWLKGDK^970 [Peptide 23] : not found
^1221PGLRGQKGDR^1230 [Peptide 28] : only at 4 °C
^1001GAPGLPGIIK^1010 [Peptide 24] : not found
^21AGEKSYGKPC^30 [Peptide 1] : not found
^781PGLKGVHGKP^790 [Peptide 16] : not found

-- ask Return the recorded ability to self-organize into structures mimicking the triple helix (CD) value; entry: ^1521HYARRNDKSY^1530 [Peptide 32]
-- reply not found

----------
assay: CD study of self-organization into structures mimicking the collagen triple helix; type: physicochemical; conditions: CD at 4 °C, 20 °C and 40 °C after 24 h incubation, water, 0.1 mg/mL
PROPERTY NAME: ability to self-organize into structures mimicking the triple helix (CD)

^951PVGIPSPRRP^960 [Peptide 22] : not found
^1311KGMRGEPGFM^1320 [Peptide 29] : not found

----------
test: CD study of self-organization into structures mimicking the collagen triple helix; assay type: physicochemical; settings: CD at 4 °C, 20 °C and 40 °C after 24 h incubation, water, 0.1 mg/mL
PROPERTY NAME: ability to self-organize into structures mimicking the triple helix (CD)

^1520CHYARRNDKSYW^1531 [Peptide 2.4] : only at 4 °C
^541KGKKGEPILS^550 [Peptide 11] : not found
^471LKGIKGDSGF^480 [Peptide 9] : not found
^891LSGPKGEKGS^900 [Peptide 20] : not found

Next:
-- ask Using the record for ^671PGFPGPKGSR^680 [Peptide 13] , state its measured ability to self-organize into structures mimicking the triple helix (CD).
-- reply only at 4 °C
